target: T1, human CCR8 (human, UniProt P51685 1-355); experiment: FACS on HEK293-human CCR8 cells
T1 construct: whole, on cells; also called hCCR8
T1 sequence (P51685 whole entry): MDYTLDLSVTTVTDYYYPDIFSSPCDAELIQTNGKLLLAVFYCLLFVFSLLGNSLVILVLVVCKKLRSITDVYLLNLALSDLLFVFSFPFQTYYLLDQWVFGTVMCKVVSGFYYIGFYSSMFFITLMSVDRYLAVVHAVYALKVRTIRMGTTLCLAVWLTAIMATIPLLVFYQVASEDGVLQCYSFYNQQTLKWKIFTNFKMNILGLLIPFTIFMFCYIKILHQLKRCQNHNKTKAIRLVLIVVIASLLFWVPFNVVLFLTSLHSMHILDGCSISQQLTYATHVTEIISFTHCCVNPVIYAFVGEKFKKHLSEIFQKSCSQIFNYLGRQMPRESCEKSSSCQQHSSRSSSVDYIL
quantity.measured: pEC50
# reply with the number alone; pEC50 is -log10 of concentration in mol/L

For the binder Hu149-8 (antibody, V domains shown, humanized IgG) VH: EVQLVESGGGLVQPGGSLKLSCAASGFTFNTYAMNWVRQASGKGLEWVGRIRSKSNFYATYYAASVKGRFTISRDDSKNTAYLQMNSLKTEDTAVYYCTRGRDYGSSYAMDYWGQGTLVTVSS VL: DIVMTQSPLSLPVTPGEPASISCRSSKSLLHSNANTYLYWYLQKPGQSPQLLIYRMSNLASGVPDRFSGSGSGTDFTLKISRVEAEDVGVYYCMQHLEYPLTFGGGTKVELK , give its reported pEC50. 9.62
